Catalogue of t1/2 values
Molecular target: T1, amino acid residues 26-148 of human ANGPTL4 fused in-line to mouse IgG2a (hANGPTL4-mFc) (human)
T1 construct: contains the N-terminal coiled-coil region
T1 chain: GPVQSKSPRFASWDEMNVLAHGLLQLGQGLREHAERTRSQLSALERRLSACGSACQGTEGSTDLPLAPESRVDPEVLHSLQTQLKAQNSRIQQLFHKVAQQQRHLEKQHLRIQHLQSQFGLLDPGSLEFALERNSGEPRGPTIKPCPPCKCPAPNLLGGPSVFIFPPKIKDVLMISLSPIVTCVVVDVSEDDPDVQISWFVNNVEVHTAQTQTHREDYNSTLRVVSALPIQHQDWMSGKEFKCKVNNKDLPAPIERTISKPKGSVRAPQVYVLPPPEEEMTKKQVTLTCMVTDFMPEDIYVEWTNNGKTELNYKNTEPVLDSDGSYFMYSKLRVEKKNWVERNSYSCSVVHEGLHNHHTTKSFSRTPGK
Test: SPR (Biacore T100), hANGPTL4-mFc captured by anti-mouse IgG, antibody injected, 37° C.
# unit: min | format: bare number

Worked set:
| binder | value.unit | t1/2 |
| --- | --- | --- |
| H1H624P (antibody, V domains shown, Fully human antibody, H1H prefix (human IgG1)) VH: EVQLVESGGGLVQPGGSLRLSCAASEFIFSSYAMNWVRQAPGKGLEWVSVISGSGDSKYYADSVKGRFTISRDNSKNTLYLQMNSLRVEDTAVYYCAKDGKDRYGFYYNFYGMDVWGQGTTVTVS VL: DIQMTQSPSFLSASVGDRVTITCWASQGISSYLAWYQQKPGKAPKILIYAASTLQSGVPSRFSASGSGTEFTLTISSLQPEDFATYHCQQLNSYPFTFGPGTKVDIK | min | 3 |
| H1H295P (antibody, V domains shown, Fully human antibody, H1H prefix (human IgG1)) VH: EVQLVESGGGLVQPGGSLRLSCAASGFTFSTYDMHWVRQAPGKGLEWVSAIGSAGDTYYPGSVKGRFTISRDNAKSSLFLQMNSLRAGDTALYYCARGDSRNYFVGDYFDYWGQGTLVTVSS VL: DIQMTQSPSTLSASVGDRVTITCRASQSIGTWLAWYQQKPGKAPKILIYKASSLEGGVPSRFSGSGSGTEFTLTISSLQPDDFANYYCQQYNSFYRTFGQGTKVEIK | min | 10 |

Consider the binder H1H257P (antibody, V domains shown, Fully human antibody; the H1H prefix stands for human IgG1 (said outright only for H1H268P and H1H284P)) VH: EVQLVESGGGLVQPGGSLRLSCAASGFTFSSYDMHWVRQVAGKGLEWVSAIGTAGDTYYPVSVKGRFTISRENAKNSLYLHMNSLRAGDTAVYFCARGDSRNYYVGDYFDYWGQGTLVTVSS VL: DIQMTQSPSTLSASVGDRVTITCRASQSISRWLAWYQQKPGKAPKVLIYQASNLESGVPSRFSGSGSGTEFTLTISSLQPDDFATYYCQQYDSYSRAFGRGTKVEIK and give its measured t1/2.
63
